- Test system: ZR-75-1 Tam2
- protocol_text: viability inhibition at highest dose (% inhibition); higher = more growth inhibition
- condition_info: 4-OH-tamoxifen in medium 1 µM; 72 h
Counter-ions that a name gives are not always drawn.
Rule: viability inhibition at highest dose below 9 gives fulfilled. Equal to or above 9 gives not fulfilled.

compound: Nc1nc(=O)c2c([nH]1)NCC(CNc1ccc(C(=O)N[C@@H](CCC(=O)O)C(=O)O)cc1)N2C=O (mixture of isomers) [Folinic acid] (drug 990000 nM)
classification: fulfilled
--
compound: C[C@@H]1CCN(C(=O)CC#N)C[C@@H]1N(C)c1ncnc2[nH]ccc12 [Tofacitinib (Tasocitinib)] (drug 5000 nM)
classification: not fulfilled
--
compound: Cn1c(=O)c(F)c(Nc2ccc(I)cc2F)c2c(=O)n(C[C@@H](O)CO)cnc21 [TAK-733] (drug 1000 nM)
classification: fulfilled
--
compound: COc1cc(Nc2c(C#N)cnc3cc(OCCCN4CCN(C)CC4)c(OC)cc23)c(Cl)cc1Cl [Bosutinib] (drug 10000 nM)
classification: not fulfilled
--
compound: CN[C@@H]1C[C@H]2O[C@@](C)([C@@H]1OC)n1c3ccccc3c3c4c(c5c6ccccc6n2c5c31)C(=O)N[C@H]4O [UCN-01] (drug 10000 nM)
classification: not fulfilled
--
compound: Cc1c(C(=O)Nc2ccc(N3C[C@@H](C)O[C@@H](C)C3)nc2)cccc1-c1ccc(OC(F)(F)F)cc1 [Erismodegib (NVP-LDE225)] (drug 10000 nM)
classification: fulfilled
--
compound: Nc1nc(Cl)nc2c1ncn2[C@@H]1O[C@H](CO)[C@@H](O)[C@@H]1F [Clofarabine] (drug 10000 nM)
classification: not fulfilled
--
compound: NC(=O)Nc1cc(-c2cccc(F)c2)sc1C(=O)N[C@H]1CCCNC1 [AZD7762] (drug 1000 nM)
classification: fulfilled
--
compound: Cc1ccc(Nc2nccc(N(C)c3ccc4c(C)n(C)nc4c3)n2)cc1S(N)(=O)=O [Pazopanib] (drug 10000 nM)
classification: not fulfilled
--
compound: CN1CCC(COc2cnc(-c3cccc(Cn4nc(-c5cccc(C#N)c5)ccc4=O)c3)nc2)CC1 (drug 1000 nM)
classification: fulfilled
--
compound: CC[C@@H]1C(=O)OC[C@@H]1Cc1cncn1C [Pilocarpine] (drug 40000 nM)
classification: fulfilled
--
compound: N#CCNC(=O)c1ccc(-c2ccnc(Nc3ccc(N4CCOCC4)cc3)n2)cc1 [Momelotinib (CYT-387)] (drug 10000 nM)
classification: fulfilled
--
compound: CO[C@H]1C[C@@H]2CC[C@@H](C)[C@@](O)(O2)C(=O)C(=O)N2CCCC[C@H]2C(=O)O[C@H]([C@H](C)C[C@@H]2CC[C@@H](O)[C@H](OC)C2)CC(=O)[C@H](C)/C=C(\C)[C@@H](O)[C@@H](OC)C(=O)[C@H](C)C[C@H](C)/C=C/C=C/C=C/1C [Sirolimus (Rapamycin)] (drug 1000 nM)
classification: not fulfilled
--
compound: CC(O)(CS(=O)(=O)c1ccc(F)cc1)C(=O)Nc1ccc(C#N)c(C(F)(F)F)c1 (stereo not given) [Bicalutamide] (drug 10000 nM)
classification: fulfilled
--
compound: CN1CCN(c2ccc3nc(-c4c(N)c5c(F)cccc5[nH]c4=O)[nH]c3c2)CC1 [Dovitinib (CHIR-258)] (drug 10000 nM)
classification: fulfilled
--
compound: COc1cc2c(Oc3ccc4[nH]c(C)cc4c3F)ncnc2cc1OCCCN1CCCC1 [Cediranib (AZD2171, Recentin)] (drug 1000 nM)
classification: fulfilled
--
compound: O=P1(NCCCl)OCCCN1CCCl (stereo not given) [Ifosfamide] (drug 10000 nM)
classification: fulfilled
--
compound: Cc1cccc(-c2nn3c(c2-c2ccnc4ccc(C(N)=O)cc24)CCC3)n1 (drug 1000 nM)
classification: fulfilled
--
compound: O=NN(CCCl)C(=O)NC1CCCCC1 [Lomustine] (drug 10000 nM)
classification: fulfilled
--
compound: CCN(CC)CCOc1ccc(C(=C(Cl)c2ccccc2)c2ccccc2)cc1 [Clomifene citrate] (drug 10000 nM)
classification: not fulfilled
--
compound: Cc1[nH]c2ccccc2c1CCNCc1ccc(/C=C/C(=O)NO)cc1 [Panobinostat] (drug 1000 nM)
classification: not fulfilled
--
compound: COc1cc2c(N3CCN(C(=O)Nc4ccc(OC(C)C)cc4)CC3)ncnc2cc1OCCCN1CCCCC1 [Tandutinib] (drug 1000 nM)
classification: fulfilled
--
compound: C/C(=C\c1csc(C)n1)[C@@H]1C[C@@H]2O[C@]2(C)CCC[C@H](C)[C@H](O)[C@@H](C)C(=O)C(C)(C)[C@@H](O)CC(=O)O1 [Patupilone (Epothilone B)] (drug 1000 nM)
classification: fulfilled
--
compound: CO[C@H]1C[C@@H]2CC[C@@H](C)[C@@](O)(O2)C(=O)C(=O)N2CCCC[C@H]2C(=O)O[C@H]([C@H](C)C[C@@H]2CC[C@@H](OCCO)[C@H](OC)C2)CC(=O)[C@H](C)/C=C(\C)[C@@H](O)[C@@H](OC)C(=O)[C@H](C)C[C@H](C)/C=C/C=C/C=C/1C [Everolimus] (drug 100 nM)
classification: not fulfilled
--
compound: CN1CCN(CCOc2cc(OC3CCOCC3)c3c(Nc4c(Cl)ccc5c4OCO5)ncnc3c2)CC1 [Saracatinib] (drug 10000 nM)
classification: fulfilled

###

The entries below come with measured drug sensitivity score values attached.
- Tested on: T-47D
- protocol_text: drug sensitivity score (DSS) (DSS (dimensionless)); higher = more sensitive; extreme values may be limits of the assay
- condition_info: 4-OH-tamoxifen in medium 0 µM; 72 h
Counter-ions that a name gives are not always drawn.

compound: CCN(CC)CCOc1ccc(C(=C(Cl)c2ccccc2)c2ccccc2)cc1 [Clomifene citrate]
drug sensitivity score: 0.434

compound: CC(C)(C)NC(=O)[C@H]1CC[C@H]2[C@@H]3CC[C@H]4NC(=O)C=C[C@]4(C)[C@H]3CC[C@]12C [Finasteride]
drug sensitivity score: 0

compound: Cc1cc(Nc2cc(CN3CCOCC3)c3nc(C)c(Cc4ccc(Cl)cc4F)n3n2)n[nH]1
drug sensitivity score: 1.41

compound: Nc1nc(F)nc2c1ncn2[C@@H]1O[C@H](CO)[C@@H](O)[C@@H]1O [Fludarabine]
drug sensitivity score: 0

###

- Test system: BT-474 Tam2
- protocol_text: viability inhibition at highest dose (% inhibition); higher = more growth inhibition
- condition_info: 4-OH-tamoxifen in medium 1 µM; 72 h
Category scheme (viability inhibition at highest dose): bucket 1 = under 3, bucket 2 = from 3 up to 20, bucket 3 = 20 and over

compound: CNC(=O)c1cc(Oc2ccc(NC(=O)Nc3ccc(Cl)c(C(F)(F)F)c3)c(F)c2)ccn1 [Regorafenib (BAY 73-4506)] (drug 10000 nM)
classification: bucket 3
--
compound: CC[C@H](Nc1ncnc2[nH]cnc12)c1nc2cccc(F)c2c(=O)n1-c1ccccc1 [CAL-101] (drug 10000 nM)
classification: bucket 2
--
compound: O=C(c1cc(Cc2n[nH]c(=O)c3ccccc23)ccc1F)N1CCN(C(=O)C2CC2)CC1 [Olaparib] (drug 10000 nM)
classification: bucket 2
--
compound: C/C(=C\c1csc(C)n1)[C@@H]1C[C@@H]2O[C@]2(C)CCC[C@H](C)[C@H](O)[C@@H](C)C(=O)C(C)(C)[C@@H](O)CC(=O)N1 [Ixabepilone] (drug 1000 nM)
classification: bucket 1
--
compound: O=c1[nH]cc(F)c(=O)[nH]1 [Fluorouracil] (drug 10000 nM)
classification: bucket 1
--
compound: CC(=O)[C@]1(O)Cc2c(O)c3c(c(O)c2[C@@H](O[C@H]2C[C@H](N)[C@H](O)[C@H](C)O2)C1)C(=O)c1ccccc1C3=O [Idarubicin] (drug 1000 nM)
classification: bucket 3
--
compound: Nc1ncn([C@@H]2O[C@H](CO)[C@@H](O)[C@H]2O)c(=O)n1 [Azacitidine] (drug 10000 nM)
classification: bucket 2
--
compound: NC(=O)c1cccc2cn(-c3ccc([C@@H]4CCCNC4)cc3)nc12 [MK-4827] (drug 10000 nM)
classification: bucket 3
--
compound: C[C@@H]1C[C@H]2[C@@H]3CCC4=CC(=O)C=C[C@]4(C)[C@@]3(F)[C@@H](O)C[C@]2(C)[C@@]1(O)C(=O)CO [Dexamethasone (Decadron)] (drug 10000 nM)
classification: bucket 1
--
compound: CCCCC(=O)OCC(=O)[C@]1(O)Cc2c(O)c3c(c(O)c2[C@@H](O[C@H]2C[C@H](NC(=O)C(F)(F)F)[C@H](O)[C@H](C)O2)C1)C(=O)c1c(OC)cccc1C3=O [Valrubicin] (drug 10000 nM)
classification: bucket 3
--
compound: Cn1c(=O)n(-c2ccc(C(C)(C)C#N)cc2)c2c3cc(-c4cnc5ccccc5c4)ccc3ncc21 [Dactolisib (NVP-BEZ235)] (drug 1000 nM)
classification: bucket 3
--
compound: O=C(NC[C@H](O)CO)c1ccncc1Nc1ccc(I)cc1F (drug 10000 nM)
classification: bucket 2
--
compound: Nc1cccc2c1CN(C1CCC(=O)NC1=O)C2=O (centres undefined) [Lenalidomide] (drug 10000 nM)
classification: bucket 1
--
compound: CN(C)c1nc(N(C)C)nc(N(C)C)n1 [Altretamine] (drug 10000 nM)
classification: bucket 1

Source of measurements: the supplement of paper PMC4932681
